# measurement_target: T1, monkey CD3e (Macaca fascicularis) on PBMC (Macaca fascicularis, UniProt Q95LI5 22-198)
# T1 construct: Target on PBMC from Macaca fascicularis; also called mfCD3e; monkey PBMC
# T1 sequence (Q95LI5 22-198 limits assumed): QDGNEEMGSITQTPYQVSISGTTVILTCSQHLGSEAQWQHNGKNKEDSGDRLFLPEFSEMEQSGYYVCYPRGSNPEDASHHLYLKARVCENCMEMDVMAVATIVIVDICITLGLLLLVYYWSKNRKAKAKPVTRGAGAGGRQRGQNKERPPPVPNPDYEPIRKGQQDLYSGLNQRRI
# assay_explanation: flow cytometry, Macaca fascicularis PBMC, antibody concentration not given, anti-human IgG Fc-Alexa Fluor647 (1:500), anti-hTcRβ-PerCP (1:30)
// reported upper right quadrant, percent of cells AF647+ / hTcRβ-PerCP+ for each item listed
Write down the numeric answer in % and omit the unit.

>>> reported_value("1B1-H1K2-IgG1-LALA (antibody, V domains shown, Humanized; human IgG1 with LALA mutations; also called H1K2 (humanized 1B1)) VH: QVQLVQSGAEVKKPGASVKVSCKASGYTFTSYWMHWVRQAPGQGLEWIGNIYPDSGTTNYGEKFKTRVTLTVDTSTSTAYMELSSLRSEDTAVYYCTRDTSGQYYFDYWGQGTLVTVSS VL: DIVMTQSPDSLAVSAGERVTMNCKSSQSLLNSRTRKNYLAWYQHKPGQSPKLLIYWASTRESGVPDRFSGSGSGTDFTLTISSLQAEDVAVYYCVQSFSLRAFGGGTKVEIK")
14.9
>>> reported_value("1B1-H2K3-IgG1-LALA (antibody, V domains shown, Humanized; human IgG1 with LALA mutations; also called H2K3 (humanized 1B1)) VH: QVQLVQSGAEVKKPGASVKLSCKASGYTFTSYWMHWVRQAPGQGLEWIGNIYPDSGTTNYGEKFKTRVTLTVDTSTSTAYMELSSLRSEDTAVYYCTRDTSGQYYFDYWGQGTLVTVSS VL: DIVMTQSPDSLAVSAGERVTMNCKSSQSLLNSRTRKNYLAWYQHKPGQSPKLLIYWASTRESGVPDRFSGSGSGTDFTLTISSVQAEDVAVYYCVQSFSLRAFGGGTKLEIK")
8.61
>>> reported_value("1B1-H3K3-IgG1-LALA (antibody, V domains shown, Humanized; human IgG1 with LALA mutations; also called H3K3 (humanized 1B1)) VH: QVQLVQSGAEVKKPGASVKLSCKASGYTFTSYWMHWVRQRHGQGLEWIGNIYPDSGTTNYGEKFKTRVTLTVDTSTSTAYMELSSLRSEDTAVYYCTRDTSGQYYFDYWGQGTLVTVSS VL: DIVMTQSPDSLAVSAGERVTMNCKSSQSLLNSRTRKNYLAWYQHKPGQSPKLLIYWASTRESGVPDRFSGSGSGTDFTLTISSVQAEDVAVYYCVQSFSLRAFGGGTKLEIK")
9.46

Need upper right quadrant, percent of cells AF647+ / hTcRβ-PerCP+, item 10A4-H4K2-IgG1-LALA (antibody, V domains shown, Humanized; human IgG1 with LALA mutations; also called H4K2 (humanized 10A4)) VH: QVQLQQSGAEVKKPGASVRISCKASGYTFTSYYIHWVRQRPGQGLEFIGWIYPGNVNAKYNEKFKGRATLTTDKSASTAYMELSSLRSEDTAVYFCAIKGGNYDWGQGTLVTVSS VL: DVVMTQSPLSLPVTLGQPASISCQSSQSLLDSDGKTYLNWLQQRPGQSPRRLIYLVSKLGSGVPDRFSGSGSGTDFTLKISRVEAEDVGVYYCWQGTHFPRTFGGGTKLEIK
1.49

Need upper right quadrant, percent of cells AF647+ / hTcRβ-PerCP+, item 10A4-H3K1-IgG1-LALA (antibody, V domains shown, Humanized; human IgG1 with LALA mutations; also called H3K1 (humanized 10A4)) VH: QVQLVQSGAEVKKPGASVKISCKASGYTFTSYYIHWVRQRPGQRLEFIGWIYPGNVNAKYNEKFKGRATLTTDKSASTAYMELSSLRSEDTAVYFCAIKGGNYDWGQGTLVTVSS VL: DVVMTQSPLSLPVTLGQPASISCQSSQSLLDSDGKTYLNWLQQRPGQSPRRLIYLVSKLGSGVPDRFSGSGSGTDFTLKISRVEAEDVGVYYCWQGTHFPRTFGGGTKVEIK
2.39

Hey, just so you know, these numbers are from patent US20210269525A1.
